# stated_conditions: in n-butanol, 313.15 K

| chemical_smiles | solubility (mole fraction) |
| --- | --- |
| CC1=NNC(=O)N(/N=C/c2cccnc2)C1 | 0.000537 |

###

# stated_conditions: in 1,4-dioxane, 288.15 K

| chemical_smiles | solubility (mole fraction) |
| --- | --- |
| CC1=NNC(=O)N(/N=C/c2cccnc2)C1 | 0.000462 |

###

# stated_conditions: in DMSO, 303.15 K
measure_name: solubility (mole fraction)

| chemical_smiles | reading |
| --- | --- |
| CC1=NNC(=O)N(/N=C/c2cccnc2)C1 | 0.00985 |

###

# stated_conditions: in isopropanol, 278.15 K

| chemical_smiles | solubility (mole fraction) |
| --- | --- |
| CC1=NNC(=O)N(/N=C/c2cccnc2)C1 | 0.000198 |
